This collection of values is drawn from patent US20210324028A1.

# Lookup of reported pKd keyed by entry
- Target: T1, human IL-2Rβ (human, UniProt P14784 27-240, limits assumed)
- T1 construct: also called hIL-2Rβ; IL-2 receptor beta
- T1 sequence (looked up): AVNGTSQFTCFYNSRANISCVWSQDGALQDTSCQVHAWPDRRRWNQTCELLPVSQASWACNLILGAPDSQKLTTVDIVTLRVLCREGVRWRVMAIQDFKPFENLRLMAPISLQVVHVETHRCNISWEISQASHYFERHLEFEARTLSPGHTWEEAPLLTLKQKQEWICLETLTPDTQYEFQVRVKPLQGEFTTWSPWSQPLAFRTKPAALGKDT
- Experiment summary: SPR, steady state
pKd is defined as minus the log10 of a concentration measured in mol/L.

Answered cases to consult:
{"Binder": "hIL-15 V49R/H32L (ligand) NWVNVISDLKKIEDLIQSMHIDATLYTESDVLPSCKVTAMKCFLLELQRISLESGDASIHDTVENLIILANNSLSSNGNVTESGCKECEELEEKNIKEFLQSFVHIVQMFINTGGGGSGHHHHHHHHGGGLNDIFEAQKIEWHE", "pKd": 6.80}
{"Binder": "hIL-15 V49R/H32E (ligand) NWVNVISDLKKIEDLIQSMHIDATLYTESDVEPSCKVTAMKCFLLELQRISLESGDASIHDTVENLIILANNSLSSNGNVTESGCKECEELEEKNIKEFLQSFVHIVQMFINTGGGGSGHHHHHHHHGGGLNDIFEAQKIEWHE", "pKd": 6.89}
{"Binder": "hIL-15 V49R/K10N (ligand) NWVNVISDLNKIEDLIQSMHIDATLYTESDVHPSCKVTAMKCFLLELQRISLESGDASIHDTVENLIILANNSLSSNGNVTESGCKECEELEEKNIKEFLQSFVHIVQMFINTGGGGSGHHHHHHHHGGGLNDIFEAQKIEWHE", "pKd": 6.64}

// next item, pKd requested
The binder hIL-15 V49R/D30I (ligand) NWVNVISDLKKIEDLIQSMHIDATLYTESIVHPSCKVTAMKCFLLELQRISLESGDASIHDTVENLIILANNSLSSNGNVTESGCKECEELEEKNIKEFLQSFVHIVQMFINTGGGGSGHHHHHHHHGGGLNDIFEAQKIEWHE showed pKd equal to 6.70
